In this section we review reported Inhibition of binding (%) values for a set of binders.
target_entity: hCMV gH + gL + UL128 + UL130 + UL131A (co-expressed in HEK293T cells) (human cytomegalovirus), P12824
assay_procedure: competitor: 9I6-biotin; cell staining
assay_context: remark: other sources report otherwise
Express it in %; write the number only.

Sample records with Inhibition of binding (%):
The recorded Inhibition of binding (%) for 7B13 (antibody, V domains shown) VH: QVQLVESGGGVVQPGGSLRLSCAASGFSFSNYGMHWVRQAPGKGLEWVALIPSDGNYQYYTDSVKGRFTVSRDNSRNTLYLQMKSLRAEDTARYHCAHLGGGLFDFWGQGTLVTVSS VL: QSALNQPRSVSGSPGQSVSISCTGSSSDVGGYEFVSWYQHHPGKAPKLIIYDVDKRPSGVPDRFSGSRSGDTASLTISGLQAEDEADYYCYSSADTWVFGGGTKLTVL is 100

The recorded Inhibition of binding (%) for 8C15 (antibody, V domains shown) VH: QVQLQESGPGLVKPSETLSLTCTVSGGSIRSYYWSWIRQPPGKGLEWIGHIYYSGNTNYSPSLQSRVTISLDTPKNQFSLRLSSVTAADTAVYYCARHDVIVVRGVFDVWGQGTVVTVSS VL: QSALTQPASVSGSPGQSITISCTGTSSDIGTYNLVSWYQQHPGKAPKVLIYDGSKRPSGVSSRFSASKSGNTASLTISGLQAEDETDYYCCSYAGTSDFFVVFGGGTKLTVL is 100

Consider the record given below.
The recorded Inhibition of binding (%) for 2C12 (antibody, V domains shown) VH: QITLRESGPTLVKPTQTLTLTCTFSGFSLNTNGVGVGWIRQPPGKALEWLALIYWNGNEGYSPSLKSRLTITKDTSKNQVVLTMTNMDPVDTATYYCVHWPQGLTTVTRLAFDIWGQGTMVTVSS VL: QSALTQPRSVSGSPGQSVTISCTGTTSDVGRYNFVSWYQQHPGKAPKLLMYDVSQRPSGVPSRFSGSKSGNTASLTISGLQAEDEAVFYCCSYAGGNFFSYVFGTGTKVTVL is 100
